Tested on: UACC-62
Test Description: NCI tumour cell line growth inhibition, 48 h
Activity calls are given as the source filed them. Rule as the data show it: active = GI50 up to about 1.1 µM and inactive = higher.
Observable: GI50

>  <Molecule>
Nc1nc(Cl)cc(NCC2(O)CCC2)n1

>  <Result>
> 100 µM (inactive)

$$$$
>  <Molecule>
CCN1CCN=C2c3cc(OC)ccc3Nc3c([N+](=O)[O-])ccc1c32

>  <Result>
1.39 µM (inactive)

$$$$
>  <Molecule>
COc1cc2c(c(OC)c1OC)-c1ccc(=O)c(O)cc1[C@@H](NC(C)=O)CC2

>  <Result>
13.2 µM (inactive)

$$$$
>  <Molecule>
COc1ccc(\N=C/C=C/C(=C/COC(C)=O)OC(C)=O)cc1

>  <Result>
37.1 µM (inactive)

$$$$
>  <Molecule>
CC(C)(CN)CN

>  <Result>
> 100 µM (inactive)

$$$$

Look up GI50 for this molecule: CCC(=O)Nc1cccc(NC(=O)c2c(Cl)c(Cl)c(Cl)c(Cl)c2-c2nc3ccccc3[nH]2)c1
5.21 µM (inactive)

Requested read-out: GI50. Entry: CCCCCCCCCCOC(=O)NCCC
38.5 µM (inactive)

For the molecule N#CC1CCCCC1NC1(C#N)CCCCC1 (stereo unspecified) , what GI50 is on record?
> 100 µM (inactive)

// query GI50 value for entry CC1=NN2C(=N)/C(=C/c3ccccc3)C(=O)N=C2S1
> 100 µM (inactive)

Could you share which GI50 value was measured for COC1OC(C)C2OC(C)(C)OC2C1OC(C)=O (stereo unspecified) ?
> 100 µM (inactive)

* * *

Test system: U-251
Test Description: NCI tumour cell line growth inhibition, 48 h
Active and inactive are the calls of the source. Cut-off read from the data, not from the text of the source: active = GI50 up to about 1.1 µM and inactive = higher.
Listed here are molecules together with their documented GI50.

Looking for the measured GI50 of CN1C(=O)[C@@]2(C=CC3(CC2)OCCO3)c2ccccc21 , can you help?
> 50 µM (inactive)

Data request, read-out GI50, for c1ccc2c3c([nH]c2c1)[C@H]1C2CCCCN2CN1CC3 (stereo partly specified)
> 100 µM (inactive)

Find the recorded GI50 belonging to COCCOCC(=O)N(CCn1ccc(NC(c2ccccc2)(c2ccccc2)c2ccccc2)nc1=O)CCn1cnc2nc(N)[nH]c(=O)c21 and report it.
> 100 µM (inactive)

What value of GI50 has been reported for the following molecule? CC(=N/NC(=S)N(C)C)/C(=N\NC(=S)N(C)C)c1ccccc1
2.8 µM (inactive)

Could you tell me which GI50 is on file for Cc1ccc(NCCN(C)C)c2c(=O)c3cc(O)ccc3oc12 ?
8.2 µM (inactive)

Entry CCC(c1ccc2cc(O)ccc2c1)C(C)(C)C(=O)O (stereo unspecified) : reported GI50 = ?
> 100 µM (inactive)

* * *

Tested on: OVCAR-4
Test Description: NCI tumour cell line growth inhibition, 48 h
Active and inactive are the calls of the source. Cut-off read from the data, not from the text of the source: active = GI50 up to about 1.1 µM and inactive = higher.
Could you please pick one outcome from this set? active, inactive

Recorded results for 5 compounds are shown here.
>  <Compound>
Cn1c(=O)c2c(nc(-n3nc(-c4ccc(Cl)cc4)cc3N)n2C)n(C)c1=O

>  <Label>
inactive

$$$$
>  <Compound>
CNC(=S)N/N=C(\C(=N/NC(=S)NC)c1ccccn1)c1ccccn1

>  <Label>
inactive

$$$$
>  <Compound>
N/C(=C\c1ccc(/C=C(\NC(=O)c2ccccc2)c2nc3c([nH]2)C(=O)c2ccccc2C3=O)cc1)c1nc2c([nH]1)C(=O)c1ccccc1C2=O

>  <Label>
inactive

$$$$
>  <Compound>
C/C(=N\[N+](C)(C)C)C(c1ccccc1)C1(c2ccccc2)C(c2ccccc2)=C1c1ccccc1 (stereo not drawn)

>  <Label>
inactive

$$$$
>  <Compound>
C=C(OC1C(C)=C2C(C1OC(=O)CCCCCCC)C(C)(OC(C)=O)CC(OC(=O)CCC)C1(O)C2OC(=O)C1(C)O)/C(C)=C/C (stereo not drawn)

>  <Label>
active

$$$$

Per the assay record, what outcome was assigned to COc1cc(CC2C(=O)OCC2[C@@H](OC(C)=O)c2ccc3c(c2)OCO3)c(Br)c(OC)c1OC (stereo partly drawn) ?
inactive

So what was the verdict on COc1cn2c(cc1=O)COc1ccc(-c3ccccc3)cc1-2 in this test?
inactive

Any idea what this test logged for OC1CC2CCC(C1)N2CCCN1c2ccccc2Sc2ccc(Cl)cc21 (stereo not drawn) ?
inactive

* * *

Test system: A549
Test Description: NCI tumour cell line growth inhibition, 48 h
Activity calls are given as the source filed them. Rule as the data show it: active = GI50 up to about 1.1 µM and inactive = higher.
# reported GI50; entries follow

>  <Molecule>
Cc1cc(C)cc(C(=N)c2ccccc2Cc2cccc3ccccc23)c1

>  <Observable>
GI50

>  <Result>
16 µM (inactive)

$$$$
>  <Molecule>
CCCCc1ccc(N2C(=O)c3cccnc3S2(=O)=O)cc1

>  <Observable>
GI50

>  <Result>
> 100 µM (inactive)

$$$$
>  <Molecule>
CC1C/C(=C\c2ccc(OC(=O)C(C)(C)C)cc2)C(=O)/C(=C/c2ccc(OC(=O)C(C)(C)C)cc2)C1 (centres undefined)

>  <Observable>
GI50

>  <Result>
40.6 µM (inactive)

$$$$

# query: GI50 of entry O=C(Cc1ccccc1)NCCCN(CCCCN(CCCNC(=O)Cc1ccccc1)C(=O)OCc1ccccc1)C(=O)OCc1ccccc1
> 43 µM (inactive)

* * *

Tested on: CCRF-CEM
Test Description: NCI tumour cell line growth inhibition, 48 h
Active and inactive are the calls of the source. Cut-off read from the data, not from the text of the source: active = GI50 up to about 1.1 µM and inactive = higher.
The reply should be one of these categories: T = active, F = inactive

>  <Compound>
Nc1nc(Cl)cc(NCC2(O)CCC2)n1

>  <Measurement Target>
CCRF-CEM

>  <Label>
F

$$$$
>  <Compound>
CSc1ccc2c(cc1=O)[C@@H](NC(=O)c1cc(O)c(O)c(O)c1)CCc1cc(O)c(O)c(O)c1-2

>  <Measurement Target>
CCRF-CEM

>  <Label>
F

$$$$
>  <Compound>
COc1cccc(C(=O)Nc2c3ccccc3nc3ccccc23)c1OC

>  <Measurement Target>
CCRF-CEM

>  <Label>
F

$$$$
>  <Compound>
C=CCNC(=O)NC1=CSC2=NC(=O)C3(NN12)c1ccccc1-c1ccccc13

>  <Measurement Target>
CCRF-CEM

>  <Label>
F

$$$$

I'd appreciate the recorded outcome for N=C(N)N/N=C/c1c(-c2ccc(Cl)c([N+](=O)[O-])c2)nc2sccn12 from this test.
F

Dear all, I need the recorded test outcome for COc1cccc(C2c3cc4c(cc3OC(NNc3ccccc3)C2C)OCO4)c1OC (configuration not stated) , thank you.
F

// param item: CO[C@@](c1ccccc1)(c1nc(C#N)c(N)o1)C(F)(F)F ; yields the recorded call
F

Lab log entry: CCCCCCCCCC[C@H](O)[C@H](O)CC[C@@H](O)[C@H]1CC[C@@H]([C@H]2CC[C@H](CCCCCCC[C@@H](O)CC3=C[C@H](C)OC3=O)O2)O1 — outcome as called in the assay?
F

For this compound, state the assay outcome: O=C1C(Cl)=C(NCCF)C(=O)c2ncccc21
T

* * *

A collection of compounds and their measured GI50
Test system: SW-620
Test Description: NCI tumour cell line growth inhibition, 48 h
Activity calls are given as the source filed them. Cut-off read from the data, not from the text of the source: active = GI50 up to about 1.1 µM and inactive = higher.

Would you please look over these solved cases?
>  <Compound>
CCCCCCCCCCCCCCCCCCNc1ccn(C2OC(COP(=O)(O)O)C(O)C2O)c(=O)n1 (stereo not drawn)

>  <Result>
> 100 µM (inactive)

$$$$
>  <Compound>
O=C(O)c1ccccc1/C=C1\Cc2cc3c(cc2C1=O)CCC3

>  <Result>
21.8 µM (inactive)

$$$$

Please look at the following compound next.
Recorded GI50 of COc1ccc(OC)c(NC(=O)C(=O)C(C(=O)c2ccccc2F)C2OC(=O)c3ccccc32)c1 (stereo not drawn) , please.
49.2 µM (inactive)

* * *

Test system: MDA-MB-435
Test Description: NCI tumour cell line growth inhibition, 48 h
Calls of active or inactive are those of the source. Cut-off read from the data, not from the text of the source: active = GI50 up to about 1.1 µM and inactive = higher.
Respond with a class label; see active, inactive

>  <Smiles Structure>
COc1cc2c(cc1OCCCOc1cc(-c3ccc(F)cc3)nc(C)n1)N=C[C@@H]1CCCN1C2=O

>  <Label>
inactive

$$$$
>  <Smiles Structure>
COc1ccc(OC)c(/C=C/c2cnnc3ccccc23)c1

>  <Label>
active

$$$$
>  <Smiles Structure>
COc1ccc2c(=O)c3ccoc3[nH]c2c1

>  <Label>
inactive

$$$$
>  <Smiles Structure>
CN(C)C(=O)Oc1ccc(C(=S)Nc2ccccc2)cc1

>  <Label>
inactive

$$$$
>  <Smiles Structure>
COc1ccc(-c2csc(-n3c(-c4ccccc4)nc4c(Br)cc(Br)cc4c3=O)n2)cc1

>  <Label>
inactive

$$$$

Kindly review the next molecule as well.
Each molecule tested received a call. Report the one for CCOC(=O)c1nc2ccccc2nc1Oc1ccc(C#N)cc1 .
inactive

* * *

Tested on: DMS-114
Test Description: NCI tumour cell line growth inhibition, 48 h
Active and inactive are the calls of the source. Cut-off read from the data, not from the text of the source: active = GI50 up to about 1.1 µM and inactive = higher.
Below, each of the compounds is paired with its reported GI50 value.

Examples with their reported GI50 follow.
>  <Smiles Structure>
NC(=O)COc1ccc(Br)cc1Br

>  <GI50>
> 100 µM (inactive)

$$$$
>  <Smiles Structure>
O=C(NC(=O)c1ccccc1[N+](=O)[O-])Nc1ccc(Oc2ncc(Cl)cn2)c([N+](=O)[O-])c1

>  <GI50>
0.0865 µM (active)

$$$$

Now consider the entry below.
Item under review: COc1ccc(C(c2ccc(C(C)C)cc(OC)c2=O)c2ccc(C(C)C)cc(OC)c2=O)cc1 . Reported GI50?
12.3 µM (inactive)
